Experiment: Oral bioavailability in dog
Type: ADME, organism-based, Canis lupus familiaris
Details: in vivo
ASSAY READOUT: bioavailability

*Q* So what's the measured bioavailability for this one? `Br.CCN(CC)CCN(CCNCCc1ccc(O)c2[nH]c(=O)sc12)C(=O)CCOCCc1cccc2ccccc12`
*A* < 2%

----------
Test: Apparent volume of distribution in iv dosed rat
Format: ADME, organism-based
Details: in vivo, read-out: Vz
ASSAY READOUT: Vd (L/kg)
A number alone suffices; assume L/kg.

*Q* So what's the measured Vd for this one? `Br.CCN(CC)CCN(CCNCCc1ccc(O)c2[nH]c(=O)sc12)C(=O)CCOCCc1cccc2ccccc12`
*A* 23
